For each entry below, report its self-splicing fitness (ln) value.
assay: self-splicing fitness, log relative to wild type (ln ratio); higher = more splicing; Tetrahymena group I intron in knt gene, E. coli kanamycin selection, DiMSum; sequences stand for … in CUCUCU…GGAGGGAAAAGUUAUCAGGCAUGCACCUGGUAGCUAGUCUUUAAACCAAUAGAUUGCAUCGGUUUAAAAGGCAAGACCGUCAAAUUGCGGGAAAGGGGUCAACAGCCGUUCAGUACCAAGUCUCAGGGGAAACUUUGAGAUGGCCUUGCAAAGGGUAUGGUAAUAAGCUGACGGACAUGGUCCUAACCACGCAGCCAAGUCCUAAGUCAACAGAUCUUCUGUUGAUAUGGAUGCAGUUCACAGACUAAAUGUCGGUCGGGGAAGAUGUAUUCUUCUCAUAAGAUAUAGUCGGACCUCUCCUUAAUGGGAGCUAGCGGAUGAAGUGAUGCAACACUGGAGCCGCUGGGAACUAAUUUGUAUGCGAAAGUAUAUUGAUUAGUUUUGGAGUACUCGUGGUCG; details: 37 °C;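 note: selection with 25 µg/mL kanamycin versus none on LB agar overnight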

Sample answers from the record:
CUCAAGCAAUAUUACGGGCU; -3
AAGAAGCAAUAUUACGUUUC; -3.15
AAUUAGCAAUAUUACGGGAC; -0.571
AUAGAGCAAUAUUACGAGGU; -2.94
ACCUAGCAAUAUUACGUCGU; -0.455
UAAUAGCAAUAUUACGGAAU; -1.76
CUUGAGCAAUAUUACGGGAC; -2.56

Q. Give a short answer stating reported self-splicing fitness (ln) for `CCACAGCAAUAUUACGUCGU` .
A. -3.14

====

assay: self-splicing fitness, log relative to wild type (ln ratio); higher = more splicing; Tetrahymena group I intron in knt gene, E. coli kanamycin selection, DiMSum; sequences stand for … in CUCUCU…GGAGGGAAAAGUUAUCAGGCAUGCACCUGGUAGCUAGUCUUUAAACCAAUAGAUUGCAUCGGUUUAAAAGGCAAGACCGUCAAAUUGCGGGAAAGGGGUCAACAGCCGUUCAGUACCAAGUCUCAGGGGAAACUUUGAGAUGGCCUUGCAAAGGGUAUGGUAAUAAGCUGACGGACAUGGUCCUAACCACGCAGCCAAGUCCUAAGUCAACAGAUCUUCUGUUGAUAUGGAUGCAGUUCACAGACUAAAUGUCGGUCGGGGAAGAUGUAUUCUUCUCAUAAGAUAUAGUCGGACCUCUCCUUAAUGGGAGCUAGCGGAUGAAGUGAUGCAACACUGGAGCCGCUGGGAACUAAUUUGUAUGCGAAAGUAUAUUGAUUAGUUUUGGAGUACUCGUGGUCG; conditions: 30 °C
TRUE means recorded self-splicing fitness (ln) is -3 or above; FALSE means it is below -3.

Completed entries (count: 3):
UACAAGCAAUAUUACGUGGA; TRUE
CUGAAGCAAUAUUACGCACG; TRUE
GGCUAGCAAUAUUACGGAAA; TRUE

From here, focus on the item given below.
Q. API: above_or_equal(metric=self-splicing fitness (ln), cutoff=-3) for item `GAGAAGCAAUAUUACGGGCC`
A. TRUE

====

assay: self-splicing fitness, log relative to wild type (ln ratio); higher = more splicing; Tetrahymena group I intron in knt gene, E. coli kanamycin selection, DiMSum; sequences stand for … in CUCUCU…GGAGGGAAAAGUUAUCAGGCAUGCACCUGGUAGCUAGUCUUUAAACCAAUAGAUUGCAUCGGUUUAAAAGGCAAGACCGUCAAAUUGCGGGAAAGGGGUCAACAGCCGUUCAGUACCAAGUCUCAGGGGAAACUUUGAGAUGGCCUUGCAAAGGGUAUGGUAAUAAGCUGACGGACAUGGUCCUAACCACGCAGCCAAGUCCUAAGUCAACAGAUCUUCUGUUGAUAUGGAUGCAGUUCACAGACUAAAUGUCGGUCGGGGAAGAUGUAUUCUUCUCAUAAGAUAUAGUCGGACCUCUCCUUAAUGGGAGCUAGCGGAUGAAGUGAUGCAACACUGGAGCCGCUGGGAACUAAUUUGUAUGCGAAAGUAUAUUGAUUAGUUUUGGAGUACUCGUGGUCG; conditions: 37 °C
For each entry below, report its self-splicing fitness (ln) value.
Answers are plain numbers.

Sample answers from the record:
UUCCAGCAAUAUUACGGCCG; -0.492
UUCCAGCAAUAUUACGUGCG; -1.59
UAGAAGCAAUAUUACGAGUU; -2.07
UUGUAGCAAUAUUACGGUUG; -0.9
CAACAGCAAUAUUACGGCGA; -0.709
UCCAAGCAAUAUUACGCAGG; -2.05

For every record below, what is its self-splicing fitness (ln)?
1. ACGAAGCAAUAUUACGUACG
2. AUCUAGCAAUAUUACGUGUC

A.
1: -0.988; 2: -2.64

====

For each entry below, report its self-splicing fitness (ln) value.
experiment: self-splicing fitness, log relative to wild type (ln ratio); higher = more splicing; Tetrahymena group I intron in knt gene, E. coli kanamycin selection, DiMSum; sequences stand for … in CUCUCU…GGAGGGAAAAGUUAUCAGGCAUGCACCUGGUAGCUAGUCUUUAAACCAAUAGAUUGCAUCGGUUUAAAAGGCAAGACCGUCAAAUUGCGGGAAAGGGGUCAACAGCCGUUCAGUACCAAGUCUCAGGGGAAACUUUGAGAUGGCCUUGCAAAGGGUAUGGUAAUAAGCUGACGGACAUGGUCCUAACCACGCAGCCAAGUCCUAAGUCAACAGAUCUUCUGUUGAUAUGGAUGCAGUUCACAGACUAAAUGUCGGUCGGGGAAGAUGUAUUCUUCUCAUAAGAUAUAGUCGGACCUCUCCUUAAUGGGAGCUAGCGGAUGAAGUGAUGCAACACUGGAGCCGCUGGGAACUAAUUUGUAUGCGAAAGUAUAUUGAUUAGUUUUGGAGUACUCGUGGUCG; conditions: 30 °C
Answers are plain numbers.

AUCAAGCAAUAUUACGAACA; -1.12
UUAUAGCAAUAUUACGAAUU; -3.24
GCGAAGCAAUAUUACGCUGG; -1.61

For every record below, what is its self-splicing fitness (ln)?
1. AUGUAGCAAUAUUACGAACC
2. UACCAGCAAUAUUACGAUAU
3. GGUCAGCAAUAUUACGUGGG
4. CCCAAGCAAUAUUACGUGUC
5. AGGCAGCAAUAUUACGAUGU

A.
1: -1; 2: -2.78; 3: -2.15; 4: -4.25; 5: -2.41

====

For each entry below, report its self-splicing fitness (ln) value.
experiment: self-splicing fitness, log relative to wild type (ln ratio); higher = more splicing; Tetrahymena group I intron in knt gene, E. coli kanamycin selection, DiMSum; sequences stand for … in CUCUCU…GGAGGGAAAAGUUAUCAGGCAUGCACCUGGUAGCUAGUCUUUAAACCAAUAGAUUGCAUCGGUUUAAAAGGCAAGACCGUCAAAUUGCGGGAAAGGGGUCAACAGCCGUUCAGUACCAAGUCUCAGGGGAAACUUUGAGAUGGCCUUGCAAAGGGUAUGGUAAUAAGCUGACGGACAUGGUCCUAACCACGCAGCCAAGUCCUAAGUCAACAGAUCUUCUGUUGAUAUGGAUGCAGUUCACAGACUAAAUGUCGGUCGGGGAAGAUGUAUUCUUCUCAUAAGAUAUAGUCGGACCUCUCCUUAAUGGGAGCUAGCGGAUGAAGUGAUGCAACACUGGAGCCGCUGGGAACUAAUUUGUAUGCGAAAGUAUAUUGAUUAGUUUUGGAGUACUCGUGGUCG; conditions: 37 °C
Numbers only.

Sample answers from the record:
GUGUAGCAAUAUUACGCGAC; -1.02
GCAAAGCAAUAUUACGAUAU; 0.42
CAGCAGCAAUAUUACGAAAA; -2.26
AUGUAGCAAUAUUACGUUGU; -1.27
AAGCAGCAAUAUUACGGCCG; -0.057

For every record below, what is its self-splicing fitness (ln)?
1. UAAAAGCAAUAUUACGCUCG
2. CGACAGCAAUAUUACGUACA
3. GCUAAGCAAUAUUACGAGAA
4. UACCAGCAAUAUUACGAGAA

A.
[0.0432, -0.392, -1.64, -1.22]

For every record below, what is its self-splicing fitness (ln)?
1. AAUCAGCAAUAUUACGUGUU
2. GGGCAGCAAUAUUACGGAUG
3. UGGGAGCAAUAUUACGUGGC
4. AGCAAGCAAUAUUACGUCGU
5. GUUGAGCAAUAUUACGGGUC
6. AUGAAGCAAUAUUACGUUAG
7. AGACAGCAAUAUUACGUGAG
8. CAGUAGCAAUAUUACGGUGU

A.
1: 0.209; 2: -2.81; 3: -1.68; 4: -0.897; 5: -1.89; 6: -0.415; 7: -0.569; 8: -0.678

For every record below, what is its self-splicing fitness (ln)?
1. GUACAGCAAUAUUACGAACU
2. CUAGAGCAAUAUUACGGCCG
3. UUUUAGCAAUAUUACGGGGA

A.
-1.24
0.456
-0.366
